The values you see were collected from patent US8987301B2.

IC50 overview
Target chain: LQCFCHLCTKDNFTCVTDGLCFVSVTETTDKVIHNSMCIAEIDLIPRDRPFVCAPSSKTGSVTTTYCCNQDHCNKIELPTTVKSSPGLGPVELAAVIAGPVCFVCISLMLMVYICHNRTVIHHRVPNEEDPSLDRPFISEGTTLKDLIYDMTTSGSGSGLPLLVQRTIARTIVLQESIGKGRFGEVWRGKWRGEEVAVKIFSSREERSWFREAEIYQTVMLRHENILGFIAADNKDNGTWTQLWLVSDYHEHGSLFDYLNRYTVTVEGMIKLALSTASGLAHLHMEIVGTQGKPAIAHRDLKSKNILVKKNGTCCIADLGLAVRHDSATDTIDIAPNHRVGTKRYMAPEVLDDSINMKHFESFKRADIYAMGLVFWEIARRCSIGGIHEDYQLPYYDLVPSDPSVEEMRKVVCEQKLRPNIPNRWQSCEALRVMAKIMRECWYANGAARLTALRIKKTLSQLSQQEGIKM

Q) Supply measured IC50 of Fc1ccc(Cl)cc1-c1cc(Cc2ccncc2)c2ccccc2n1 [compound 004] in your reply.
A) > 10 µM

Q) Read off the recorded IC50 for COCc1nc2cnccc2n1-c1cc(-c2cc(Cl)ccc2F)nc2ccccc12 [compound 089]
A) < 0.5 µM

Q) For CN(C)c1cccc(-c2cc(Nc3cc(N)ncn3)c3ccccc3n2)c1 [compound 080] , write its IC50.
A) > 10 µM

====

// values below are reported pIC50
Target protein (sequence): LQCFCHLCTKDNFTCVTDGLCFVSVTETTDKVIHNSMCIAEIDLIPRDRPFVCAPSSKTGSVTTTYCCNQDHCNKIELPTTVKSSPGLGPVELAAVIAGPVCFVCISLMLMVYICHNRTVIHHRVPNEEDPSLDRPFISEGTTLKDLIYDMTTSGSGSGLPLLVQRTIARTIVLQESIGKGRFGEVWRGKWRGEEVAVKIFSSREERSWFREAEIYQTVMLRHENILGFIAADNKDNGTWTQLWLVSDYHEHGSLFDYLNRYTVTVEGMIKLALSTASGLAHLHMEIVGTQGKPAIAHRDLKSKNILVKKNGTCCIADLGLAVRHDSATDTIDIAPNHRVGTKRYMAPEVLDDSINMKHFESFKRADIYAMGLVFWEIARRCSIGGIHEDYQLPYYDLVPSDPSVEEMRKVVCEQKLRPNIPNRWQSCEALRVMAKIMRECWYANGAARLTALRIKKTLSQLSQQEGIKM
pIC50: −log10 of the molar value.

Illustrative cases are given below, each with its answer.
COMPOUND_STRUCTURE_STRING	EXPERIMENTAL_ENDPOINT	RESULT
Clc1ccc(-c2cc(Nc3ccncc3)c3ccccc3n2)cc1Cl	pIC50	< 5.00
CN1CCN(c2cc(Nc3cc(-c4cc(Cl)ccc4F)nc4ccccc34)ncn2)CC1	pIC50	< 5.00
O=C(O)CCNc1cnccc1Nc1cc(-c2cc(Cl)ccc2F)nc2ccccc12	pIC50	< 5.00
CC(C)(C)OC(=O)NCC(=O)Nc1cc(Nc2cc(-c3cc(Cl)ccc3F)nc3ccccc23)ccn1	pIC50	5.00 to 6.00

Q) Specify reported pIC50 for the compound shown: Fc1ccc(Cl)cc1-c1cc(Nc2ccnc3[nH]ccc23)c2ccccc2n1
A) < 5.00
